System: Escherichia coli TOP10;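 further: peptides expressed intracellularly from a pBAD plasmid library in pooled LB shake-flask culture, induced with 0.3% L-arabinose, DNA abundance read by NGS, three biological replicates, DESeq2 with apeglm shrinkage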
Protocol details: shrunken log2 fold change of peptide-encoding DNA abundance (4.5 h post-induction vs induction); higher = less antimicrobial activity (less host growth inhibition)
Measurement setup: time post-induction: 4.5 h; library: site-saturation at positions 5, 18, 19, 20
Listing of recorded shrunken log2 fold change by entry.

[
  {
    "Sequence chain": "RRIRDRPPRLPRPRPRPLANPRP",
    "shrunken log2 fold change": 0.861
  },
  {
    "Sequence chain": "RRIRRRPPRLPRPRPRPKYLPRP",
    "shrunken log2 fold change": -0.042
  },
  {
    "Sequence chain": "RRIRDRPPRLPRPRPRPCLWPRP",
    "shrunken log2 fold change": 0.218
  },
  {
    "Sequence chain": "RRIRCRPPRLPRPRPRPCIRPRP",
    "shrunken log2 fold change": -0.145
  },
  {
    "Sequence chain": "RRIRNRPPRLPRPRPRPEVSPRP",
    "shrunken log2 fold change": -0.0183
  },
  {
    "Sequence chain": "RRIRRRPPRLPRPRPRPAARPRP",
    "shrunken log2 fold change": 0.287
  },
  {
    "Sequence chain": "RRIRARPPRLPRPRPRPTDAPRP",
    "shrunken log2 fold change": 0.607
  },
  {
    "Sequence chain": "RRIRRRPPRLPRPRPRPHSCPRP",
    "shrunken log2 fold change": 0.0404
  }
]
